# target desc: T1, His-tagged cynomolgus monkey CD38 (ACRO Biosystems, CD8-05223 [sic]) (cynomolgus monkey, UniProt Q5VAN0 43-301)
# T1 construct: bought protein; used for ELISA coating and as SPR analyte; not shown: His tag
# protocol description: SPR, IgG
What pKd was measured for each of the following?
Answers are plain numbers, as −log10 of the molar value.

These solved cases illustrate the format of a correct answer.
binder | pKd
40769p2.2.D3 IgG (antibody, V domains shown, IgG) VH: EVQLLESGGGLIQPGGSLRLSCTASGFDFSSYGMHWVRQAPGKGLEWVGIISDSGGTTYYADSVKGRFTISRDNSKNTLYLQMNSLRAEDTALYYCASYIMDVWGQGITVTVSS VL: QSVLTQPPSASGTPGQRVTISCSGSNSNVGVNSVYWYQQLPGTAPKLLIYGSGRRPSGVPDRFSVSKSGTSASLAISGLQSEDEADYYCAAWDGGLNAWVFGGGTKLTVL | 6.46
40769p2.2.A9 IgG (antibody, V domains shown, IgG) VH: EVQLLESGGGLVQPGGSLRLSCTASGITFSRFNMFWVRQAPGKGLEFVASIRDDGSWTYYADSVKGQFTISRDNSKNTLYLQMNSLRAEDTAVYYCAKDYNSKDFIYHYVMDVWGQGTTVTVSS VL: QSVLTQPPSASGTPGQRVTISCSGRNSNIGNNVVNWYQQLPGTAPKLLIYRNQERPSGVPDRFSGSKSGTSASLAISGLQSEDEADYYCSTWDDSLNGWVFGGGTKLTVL | 6.59

Query: Given the binder 40769p2.2.G3 IgG (antibody, V domains shown, IgG) VH: EVQLLESGGGLVQPGGSLRLSCTASGITFSRFNMFWVRQAPGKGLEFVASIRDDGSWTYYADSVKGQFTISRDNSKNTLYLQMNSLRAEDTAVYYCAKDYSSKDFIYHYVMDVWGQGTTVTVSS VL: QSVLTQPPSASGTPGQRVTISCSGRNSNIGNNVVNWYQQLPGTAPKLLIYRNQERPSGVPDRFSGSKSGTSASLAISGLQSEDEADYYCASWDDSLNAWVFGRGTKLTVL , what is its reported pKd?
Result: 6.69

Entry source: patent US20220306762A1
